biological target: HCV NS5B polymerase (His-tagged, C-terminal 21 amino acid deleted NS5B, HC-J4) (Hepatitis C virus genotype 1b, UniProt O92972); construct: The cDNA encoding NS5B amino acid 1-570 (HC-J4, genotype 1b); His tag (His6, from pET-21b) (C); made in house; host or cells: E. coli BL21 (DE3); assay: NS5b polymerase assay (biochemical RdRp assay, 3H-GTP incorporation, SPA beads); set-up: species or system HCV genotype 1b; settings: NS5B Polymerase Assay IC50 (μM)
Sequence (O92972 2417-3000, looked up, stated change not applied): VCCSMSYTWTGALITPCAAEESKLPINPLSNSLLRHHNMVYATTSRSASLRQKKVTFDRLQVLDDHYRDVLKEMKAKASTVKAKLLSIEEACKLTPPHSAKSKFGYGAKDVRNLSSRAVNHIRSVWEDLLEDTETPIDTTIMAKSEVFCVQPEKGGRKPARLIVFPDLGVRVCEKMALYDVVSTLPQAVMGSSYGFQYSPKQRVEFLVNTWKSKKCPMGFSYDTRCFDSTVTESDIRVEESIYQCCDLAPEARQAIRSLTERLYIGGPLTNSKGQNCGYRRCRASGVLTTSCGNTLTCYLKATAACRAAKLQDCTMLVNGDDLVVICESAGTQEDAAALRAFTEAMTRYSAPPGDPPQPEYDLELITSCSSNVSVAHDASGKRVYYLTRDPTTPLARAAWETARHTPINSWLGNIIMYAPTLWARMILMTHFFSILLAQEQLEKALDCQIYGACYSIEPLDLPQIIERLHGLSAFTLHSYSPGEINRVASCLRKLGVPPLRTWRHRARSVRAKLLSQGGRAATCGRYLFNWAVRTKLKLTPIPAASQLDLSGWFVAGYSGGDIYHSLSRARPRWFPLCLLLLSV
IC50 values for the molecules below.
QUANTITY NAME: IC50

>>> result("COc1ccc(C2CC(=O)C3=C(C2)Nc2ccccc2NC3c2ccccc2OC(C)C)cc1OC (stereo not shown) [compound 370]")
"> 42.7 µM"
>>> result("COc1ccc(C2CC(=O)C3=C(C2)Nc2ccccc2NC3c2cc(OC)c(OC)cc2OC)cc1 (stereo not shown) [compound 398]")
"> 42.7 µM"
>>> result("CC1(C)CC(=O)C2=C(C1)Nc1ccccc1NC2c1cccc(Oc2ccccc2Br)c1 (stereo not shown) [compound 446]")
"> 133 µM"
>>> result("O=C1CC(c2ccc(Cl)cc2)CC2=C1C(c1ccc(Cl)c(Cl)c1)Nc1ccccc1N2 (stereo not shown) [compound 355]")
"> 42.7 µM"
>>> result("O=C1CC(c2ccccc2)CC2=C1C(c1ccccc1OCc1ccccc1)Nc1ccccc1N2 (stereo not shown) [compound 365]")
"27.3 µM"
>>> result("COc1ccc(C2Nc3ccccc3NC3=C2C(=O)CC(C)(C)C3)cc1OCc1ccccc1 (stereo not shown) [compound 424]")
"11.6 µM"
>>> result("CC1(C)CC(=O)C2=C(C1)Nc1ccccc1NC2c1c(Cl)cc(OCc2ccccc2)cc1Cl (stereo not shown) [compound 447]")
"> 133 µM"
>>> result("CCOc1cc(C2Nc3ccccc3NC3=C2C(=O)CC(c2ccc(OC)cc2)C3)ccc1OC(C)=O (stereo not shown) [compound 386]")
"> 42.7 µM"
>>> result("O=C1CC(c2ccc(Cl)cc2)CC2=C1C(c1cccc(Cl)c1)Nc1ccccc1N2 (stereo not shown) [compound 350]")
"25.1 µM"
>>> result("COc1ccc(C2CC(=O)C3=C(C2)Nc2ccccc2NC3c2ccc(C)c([N+](=O)[O-])c2)cc1 (stereo not shown) [compound 359]")
"> 42.7 µM"
>>> result("O=C1C[C@@H](c2ccc3c(c2)OCO3)CC2=C1[C@H](c1cccnc1)Nc1ccccc1N2 [compound 476]")
"> 42.7 µM"
>>> result("O=C1CC(c2ccccc2OCc2ccccc2)CC2=C1C(c1cccc(OCc3ccccc3)c1)Nc1ccccc1N2 (single isomer, unassigned) [compound 420]")
"> 42.7 µM"
>>> result("COc1ccc(C2CC(=O)C3=C(C2)Nc2ccccc2NC3c2cc(Br)c(O)c(OC)c2)cc1OC (stereo not shown) [compound 397]")
"> 42.7 µM"
>>> result("CCn1c2ccccc2c2cc(C3Nc4cc(C)c(C)cc4NC4=C3C(=O)CC(C)(C)C4)ccc21 (stereo not shown) [compound 504]")
"39.1 µM"
>>> result("COc1ccc(C2CC(=O)C3=C(C2)Nc2ccccc2NC3c2ccc(OCc3ccccc3)c(OC)c2)cc1OC (stereo not shown) [compound 405]")
"> 42.7 µM"
>>> result("O=C1CC(c2ccccc2)CC2=C1C(c1cccc(Oc3ccccc3)c1)Nc1ccccc1N2 (stereo not shown) [compound 361]")
"> 42.7 µM"

* * *

target: HCV NS5B polymerase (His-tagged, C-terminal 21 amino acid deleted NS5B, HC-J4) (Hepatitis C virus genotype 1b, UniProt O92972); construct: The cDNA encoding NS5B amino acid 1-570 (HC-J4, genotype 1b); His tag (His6, from pET-21b) (C); made in house; host or cells: E. coli BL21 (DE3); experiment: NS5b polymerase assay (biochemical RdRp assay, 3H-GTP incorporation, SPA beads); set-up: species or system HCV genotype 1b; details: NS5B Polymerase Assay IC50, 200 nM enzyme, 3H-GTP incorporation, 2 h at 25° C.
pIC50: −log10 of the molar value.
QUANTITY NAME: pIC50

>>> result("CC(=O)N1c2ccccc2NC2=C(C(=O)CC(C)(C)C2)C1c1c(Cl)cc(OCc2ccccc2)cc1Cl (stereo not shown)")
"< 3.88"
>>> result("CCCCC(=O)N1c2ccccc2NC2=C(C(=O)CC(C)(C)C2)C1c1ccc(OC)c(OC)c1 (stereo not shown)")
"< 4.48"
>>> result("CCC(=O)N1c2ccccc2NC2=C(C(=O)CC(C)(C)C2)C1c1ccc(OC)cc1OC (stereo not shown)")
"< 4.37"
>>> result("COc1cccc(C2C3=C(CC(C)(C)CC3=O)Nc3ccccc3N2C(=O)Cc2ccc(Cl)cc2)c1 (stereo not shown)")
"< 4.37"
>>> result("COc1ccc(C2C3=C(CC(C)(C)CC3=O)Nc3ccccc3N2C(C)=O)cc1OC (stereo not shown)")
"< 4.37"
>>> result("CCC(=O)N1c2ccccc2NC2=C(C(=O)CC(c3ccc(OC)cc3)C2)C1c1ccc(OC)cc1 (stereo not shown)")
"< 4.37"
>>> result("COc1ccc(C2C3=C(CC(C)(C)CC3=O)Nc3ccccc3N2C(=O)CSc2nc3ccccc3s2)cc1 (stereo not shown)")
"< 4.37"
>>> result("CCOc1ccc(C2C3=C(CC(C)(C)CC3=O)Nc3ccccc3N2C(=O)Cc2ccccc2)cc1 (stereo not shown)")
"< 4.37"
>>> result("CC(=O)N1c2cccc(C)c2NC2=C(C(=O)CC(C)(C)C2)C1c1ccc(Cl)cc1Cl (stereo not shown)")
5.32
>>> result("COc1ccc(OC)c(C2C3=C(CC(C)(C)CC3=O)Nc3ccccc3N2C(=O)c2ccccc2)c1 (stereo not shown)")
"< 4.37"
>>> result("CCCCCC(=O)N1c2ccccc2NC2=C(C(=O)CC(c3ccco3)C2)C1c1ccc(Cl)cc1 (stereo not shown)")
"< 4.48"
>>> result("CC1(C)CC(=O)C2=C(C1)Nc1ccccc1N(C(=O)c1ccccc1)C2c1ccccc1Cl (stereo not shown)")
"< 4.37"
>>> result("CC(=O)N1c2ccccc2NC2=C(C(=O)CC(C)(C)C2)C1c1cccc(Cl)c1Cl (stereo not shown)")
"< 4.37"
>>> result("CC(=O)N1c2ccccc2NC2=C(C(=O)CC(C)(C)C2)C1c1cccc(OCc2ccccc2)c1 (stereo not shown)")
"< 3.88"
>>> result("CCOc1cc(C2C3=C(CC(C)(C)CC3=O)Nc3ccccc3N2C(=O)c2ccccc2)ccc1O (stereo not shown)")
"< 4.37"
>>> result("CCOc1ccc(C2C3=C(CC(C)(C)CC3=O)Nc3ccccc3N2C(=O)Cc2ccc(Cl)cc2)cc1 (stereo not shown)")
"< 4.37"

* * *

target: HCV NS5B polymerase (His-tagged, C-terminal 21 amino acid deleted NS5B, HC-J4) (Hepatitis C virus genotype 1b); construct: The cDNA encoding NS5B amino acid 1-570 (HC-J4, genotype 1b); His tag (His6, from pET-21b) (C); made in house; host or cells: E. coli BL21 (DE3); test: NS5b polymerase assay (biochemical RdRp assay, 3H-GTP incorporation, SPA beads); set-up: species or system HCV genotype 1b; conditions: NS5B Polymerase Assay IC50 (μM)
Here, each record is paired with measured IC50 data.
QUANTITY NAME: IC50 (µM)

>>> measured_number("CC1(C)CC(=O)C2=C(C1)Nc1ccccc1NC2c1ccc(OCc2ccccc2)cc1Cl (centres unmarked) [compound 443]")
0.312
>>> measured_number("COc1cccc(C2Nc3ccccc3NC3=C2C(=O)CC(c2ccc(Cl)cc2)C3)c1OC (centres unmarked) [compound 348]")
29.6
>>> measured_number("CC1(C)CC(=O)C2=C(C1)Nc1ccc(C#N)cc1NC2c1ccc(Cl)cc1Cl (centres unmarked) [compound 473]")
50
>>> measured_number("CC1(C)CC(=O)C2=C(C1)Nc1cccc(C#N)c1NC2c1ccc(Cl)cc1Cl (centres unmarked) [compound 470]")
23.3

* * *

Let's look at some molecules and their measured IC50.
target: HCV NS5B polymerase (His-tagged, C-terminal 21 amino acid deleted NS5B, HC-J4) (Hepatitis C virus genotype 1b, UniProt O92972); construct: The cDNA encoding NS5B amino acid 1-570 (HC-J4, genotype 1b); His tag (His6, from pET-21b) (C); made in house; host or cells: E. coli BL21 (DE3); test: NS5b polymerase assay (biochemical RdRp assay, 3H-GTP incorporation, SPA beads); design: species or system HCV genotype 1b; details: 200 nM enzyme, 3H-GTP incorporation, 2 h at 25° C.; read-out: NS5B Polymerase Assay IC50
QUANTITY NAME: IC50

>>> result("COc1cc(C2C3=C(CC(C)(C)CC3=O)Nc3ccccc3N2C(C)=O)ccc1OCc1ccccc1 (centres unmarked)")
"8.56 µM"
>>> result("CCCCOc1ccc(C2CC(=O)C3=C(C2)Nc2ccccc2N(C(=O)c2ccccc2)C3c2ccccc2)cc1 (centres unmarked)")
"> 42.7 µM"
>>> result("CCCCCC(=O)N1c2ccccc2NC2=C(C(=O)CC(c3ccc(OC)c(OC)c3)C2)C1c1ccc(Cl)cc1 (mixture of isomers)")
"> 33.3 µM"
>>> result("CC(=O)N1c2ccccc2NC2=C(C(=O)CC(c3cccc([N+](=O)[O-])c3)C2)C1c1ccccc1 (centres unmarked)")
"> 36.2 µM"
>>> result("Cc1ccc(C2CC(=O)C3=C(C2)Nc2ccccc2N(C(=O)c2ccccc2)C3c2ccccc2)cc1 (mixture of isomers)")
"> 33.3 µM"
